- experimental_details: in vivo
- Set-up: species or system Beagle dogs
- condition_parameters: both sexes, beagle, dog, in vivo, Kp [tissue]/[plasma], Muscle
parameter: Kp at 2 h
# print the numeric value only

Give the measured Kp at 2 h of COc1cc(/C=C/C(=O)CC(=O)/C=C/c2ccc(O)c(OC)c2)ccc1O [Curcumin, reference compound] .
0.0034

----------
- experimental_details: in vivo
- Parameters: species or system Beagle dogs
- condition_parameters: both sexes, beagle, dog, in vivo, Average tissue concentration, Brainstem
parameter: concentration at 15 min
Answer with the figure and its unit, nothing else.

Give the measured concentration at 15 min of COc1cc(/C=C/C(=O)CC(=O)/C=C/c2ccc(O)c(OC)c2)ccc1O [Curcumin, reference compound] .
0.45 ng/g

Source: patent US9170257B2
